target: AMP-activated protein kinase, AMPK (Homo sapiens) (UniProt P54646+O43741+P54619+Q9UGJ0+Q9Y478+Q13131+Q9UGI9)
procedure-text: AMP-dependent Kinase enzyme assay. An in vitro enzyme assay that detects ADP turnover that is directly proportional to AMPK activity. This uses naive AMPK that is activated during the assay with MK-8722
Assay type: functional
Parameters: scale not given: direction of the effect not stated beside the values
assay-setup: 30 µM
measure: Percent Effect
Note: state the figure and append the unit.

See these solved cases before continuing.
| compound | Percent Effect |
| --- | --- |
| Cc1ccc(S(=O)(=O)NC(=O)c2c(C)noc2C(C)C)cc1C | -4.09% |
| Cc1ccc(Nc2nccc(C3CN(CC(N)=O)C3)n2)nc1 | 2.38% |
| COc1cc(CNC(=O)Nc2cc(C(F)(F)F)c[nH]c2=O)ccn1 | 2.48% |
| COCCCNC(=O)NCc1ccc(C)cc1 | -3.62% |
| Cc1noc(C)c1C(=O)N(C)Cc1nc(-c2ccccn2)no1 | -0.593% |
| CCn1c(Cn2cncn2)nnc1C1CCN(Cc2ccncc2)CC1 | -3.24% |
| N#Cc1cccnc1N1CCC2(CCCN(C3CCOCC3)C2=O)C1 (configuration not stated) | 0.329% |
| Cc1noc(C(C)N2CCN(CC(=O)N3CCOCC3)CC2)n1 (configuration not stated) | -3.04% |
| Cn1ncc2c1C(COCC1CC1)CN(Cc1ccoc1)C2 (configuration not stated) | 1.61% |
| Cc1cc(C(F)(F)F)nn1C(C)C(=O)Nc1ccncc1 (configuration not stated) | -4.73% |

What value of Percent Effect has been recorded for this entry: CCOCCn1c(=O)[nH]c2cc(C(=O)N(C)CCc3cn[nH]c3)ccc21
4.85%

Which Percent Effect is reported for this compound? CS(=O)(=O)N1CCOC2(CCCN(c3cnccn3)C2)C1 (configuration not stated)
-1.28%

* * *

// Percent Effect lookup, one value per entry
target: Ubiquitin-activating enzyme e1, putative (Leishmania donovani (strain BPK282A1)) (UniProt E9BSI1)
Sequence (E9BSI1 as listed by the source): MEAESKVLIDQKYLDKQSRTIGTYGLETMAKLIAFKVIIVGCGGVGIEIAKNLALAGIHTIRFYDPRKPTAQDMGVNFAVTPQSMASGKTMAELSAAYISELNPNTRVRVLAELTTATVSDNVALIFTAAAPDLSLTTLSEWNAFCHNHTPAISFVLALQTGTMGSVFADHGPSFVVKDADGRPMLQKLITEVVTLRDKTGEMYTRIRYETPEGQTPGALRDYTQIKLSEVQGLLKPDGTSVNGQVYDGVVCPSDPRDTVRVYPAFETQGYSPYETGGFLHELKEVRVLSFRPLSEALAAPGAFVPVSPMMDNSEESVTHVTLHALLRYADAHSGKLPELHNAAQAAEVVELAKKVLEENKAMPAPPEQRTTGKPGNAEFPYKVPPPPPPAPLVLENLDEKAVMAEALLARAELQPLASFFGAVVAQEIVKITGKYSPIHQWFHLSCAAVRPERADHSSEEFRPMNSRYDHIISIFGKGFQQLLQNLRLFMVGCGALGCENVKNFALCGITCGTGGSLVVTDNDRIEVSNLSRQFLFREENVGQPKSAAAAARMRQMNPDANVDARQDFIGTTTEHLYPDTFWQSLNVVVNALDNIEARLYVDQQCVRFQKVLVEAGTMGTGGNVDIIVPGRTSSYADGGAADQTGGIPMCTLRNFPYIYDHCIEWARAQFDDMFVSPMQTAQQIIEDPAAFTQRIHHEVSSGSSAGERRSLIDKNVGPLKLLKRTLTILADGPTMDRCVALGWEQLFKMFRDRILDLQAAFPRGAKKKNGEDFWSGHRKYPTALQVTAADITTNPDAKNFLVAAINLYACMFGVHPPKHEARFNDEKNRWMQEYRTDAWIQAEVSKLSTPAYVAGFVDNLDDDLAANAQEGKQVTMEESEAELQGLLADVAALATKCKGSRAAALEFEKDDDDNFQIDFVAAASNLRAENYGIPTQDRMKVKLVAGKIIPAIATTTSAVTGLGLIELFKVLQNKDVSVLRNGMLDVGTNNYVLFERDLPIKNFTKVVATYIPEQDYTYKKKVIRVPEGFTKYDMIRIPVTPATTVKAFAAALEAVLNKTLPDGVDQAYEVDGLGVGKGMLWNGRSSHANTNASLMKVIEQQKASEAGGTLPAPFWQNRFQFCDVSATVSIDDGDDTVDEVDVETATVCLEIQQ
procedure-text: Leishmania donovani Ubiquitin Activating Enzyme (LdE1)
Type: functional
Parameters: scale not given: direction of the effect not stated beside the values
assay-setup: 30 µM
Entries with a potency or affinity are not part of this list.
Only the number, expressed in %, is required.

Please review the following examples before continuing.
| compound | measure | measurement |
| --- | --- | --- |
| COC(=O)c1cccn1C1CCN(C(=O)c2cc(F)ccc2F)CC1 | Percent Effect | 13 |
| CCN(CC)CC1CN(CCc2ccccc2)Cc2nccn2C1 (stereo unspecified) | Percent Effect | -2.74 |
| COCC(=O)NCCn1ccc2c(OC)cccc21 | Percent Effect | 17.3 |
| CCc1ccc(NC(=O)N2C[C@H]3C[C@H](C(=O)NC)[C@@H](C2)O3)cc1 | Percent Effect | 2.6 |
| CCCc1nc(CN2CCOC(CNc3cccnn3)C2)cs1 (stereo unspecified) | Percent Effect | 2.7 |

With those in mind, consider the next compound.
Please look up its Percent Effect: CC(C(=O)NCc1ccc(-n2cncn2)nc1)n1ccnc1 (stereo unspecified)
2.6

* * *

Entries and their measured Percent Effect follow.
Organism: Homo sapiens
procedure-text: To identify inhibition of the IFN signalling (Jak-Stat) pathway via expression of an eGFP reporter gene under the control of an IFN-stimulated response element (ISRE) containing MxA promoter.
Type: functional
Parameters: scale not given: direction of the effect not stated beside the values
assay-setup: 30 µM
Reply numerically in %, unit not repeated.

| molecule | Percent Effect, % |
| --- | --- |
| O=C1CC2(CCN(CC3CCOC3)CC2)CN1Cc1cc(F)cc(F)c1 (stereo unspecified) | -12.9 |
| Cc1cc(C)n(C2CN(Cc3noc(-c4ccccc4)n3)C2)n1 | 5.29 |
| CCn1cc2c(n1)CN(Cc1nccs1)CC2COCC1CC1 (stereo unspecified) | 0.895 |
| Cc1noc([C@H]2C[C@@H]3CCN(CC4CC4)C[C@H]3O2)n1 | 4.2 |
| CN(C)C(=O)N1CCOCC2(CCN(c3ccccn3)C2)C1 (stereo unspecified) | -4.16 |

Consider the molecule shown here: c1ccc(CCN2CCN(c3ccc4nncn4n3)CC2)nc1 What is its recorded Percent Effect?
21.7

Give its Percent Effect value. Item: CN(C)C(=O)N1CCN(CCn2nc3ccccn3c2=O)CC1
3.27

Endpoint output: Percent Effect of CCN(CC)c1ccc(C(=O)N(C)Cc2c(C)noc2C)cn1 . Value?
10.8
